targetDesc: UniProtKB P49841
testName: Assay 6 - GSK3b assay (ThermoFisher, FRET Z-Lyte)
Format: biochemical
conditionsUsed: geometric mean; ATP Conc: 10.000 μM; read-out: Assay 6 (GSK3B FRET-Z-Lyte CR) GMean IC50 (μM) ATP Conc: 10.000
recordedMetric: IC50

O=c1ccccn1-c1ccc(N[C@H]2CC[C@H](Nc3nc4cc(C5CC5)cnc4[nH]3)C2)nc1 : 1.77 µM

Dear colleague, could you please provide IC50 for the molecules listed below?
1. N#Cc1cccn(-c2ccc(N[C@H]3CC[C@H](Nc4nc5cccnc5o4)C3)nc2)c1=O
2. O=c1ccc2ccccc2n1-c1ccc(N[C@H]2CC[C@H](Nc3nc4cccnc4[nH]3)C2)nc1
3. O=c1ccccn1-c1ccc(N[C@H]2CC[C@H](Nc3nc4cccnc4[nH]3)C2)cc1
4. Cc1ccc2nc(N[C@H]3CC[C@H](Nc4ccc(-n5ccccc5=O)cn4)C3)sc2c1

Out:
1. > 10 µM
2. > 10 µM
3. > 10 µM
4. > 10 µM

====

targetDesc: potassium ion channel hERG (human Ether-á-go-go-Related Gene) (Homo sapiens)
Sequence (Q12809 whole entry): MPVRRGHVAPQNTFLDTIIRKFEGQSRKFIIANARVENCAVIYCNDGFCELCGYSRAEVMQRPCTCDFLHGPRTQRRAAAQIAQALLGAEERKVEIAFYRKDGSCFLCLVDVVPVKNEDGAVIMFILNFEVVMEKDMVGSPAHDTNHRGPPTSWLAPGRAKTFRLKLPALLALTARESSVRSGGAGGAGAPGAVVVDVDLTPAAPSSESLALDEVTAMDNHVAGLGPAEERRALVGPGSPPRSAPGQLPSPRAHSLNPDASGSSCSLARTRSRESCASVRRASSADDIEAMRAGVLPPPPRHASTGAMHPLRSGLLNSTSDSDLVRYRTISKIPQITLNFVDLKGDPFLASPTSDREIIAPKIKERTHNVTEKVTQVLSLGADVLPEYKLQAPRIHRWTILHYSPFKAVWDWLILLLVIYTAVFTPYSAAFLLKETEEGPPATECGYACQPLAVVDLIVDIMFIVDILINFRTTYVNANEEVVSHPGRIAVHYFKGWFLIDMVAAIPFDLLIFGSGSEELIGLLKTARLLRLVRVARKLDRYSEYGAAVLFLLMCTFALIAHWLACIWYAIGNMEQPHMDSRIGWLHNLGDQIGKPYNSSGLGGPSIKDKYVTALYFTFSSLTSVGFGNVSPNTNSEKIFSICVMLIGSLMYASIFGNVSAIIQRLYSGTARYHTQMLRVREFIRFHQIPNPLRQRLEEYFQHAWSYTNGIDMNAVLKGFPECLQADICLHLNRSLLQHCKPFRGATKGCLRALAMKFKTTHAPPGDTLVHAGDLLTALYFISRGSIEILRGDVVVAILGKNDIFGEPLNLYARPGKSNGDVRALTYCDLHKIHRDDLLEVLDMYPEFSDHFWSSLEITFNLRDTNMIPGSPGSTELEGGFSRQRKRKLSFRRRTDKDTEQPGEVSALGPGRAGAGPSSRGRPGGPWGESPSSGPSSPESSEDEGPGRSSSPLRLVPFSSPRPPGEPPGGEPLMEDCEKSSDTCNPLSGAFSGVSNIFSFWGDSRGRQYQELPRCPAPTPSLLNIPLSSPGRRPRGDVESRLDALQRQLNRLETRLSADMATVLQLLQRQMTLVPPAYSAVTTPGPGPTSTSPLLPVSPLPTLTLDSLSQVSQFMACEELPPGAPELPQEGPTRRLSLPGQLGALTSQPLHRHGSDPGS
testName: Assay 5 - hERG assay (SyncroPatch 384PE patch clamp, CHO cells)
conditionsUsed: geometric mean, CHO cells over-expressing hERG, read-out: Assay 5 (hERG Hu CHO IF EPh CR-Syncro) GMean IC50
recordedMetric: pIC50
Numbers only, as −log10 of the molar value.

O=c1c(Cl)cccn1-c1ccc(N[C@H]2CC[C@H](Nc3nc4cccnc4o3)C2)nc1 : 4.55
Fc1cccc(F)c1-c1ccc(N[C@H]2CC[C@H](Nc3nc4cccnc4[nH]3)C2)nc1 : 5.18
N#Cc1ccc2nc(N[C@H]3CC[C@H](Nc4ccc(-n5ccccc5=O)cn4)C3)oc2c1 : 5.22
O=c1ccccn1-c1ccc(N[C@H]2CC[C@H](Nc3nc4ccccc4s3)C2)nc1 : 4.90
O=c1c2sccc2ccn1-c1ccc(N[C@H]2CC[C@H](Nc3nc4cccnc4s3)C2)nc1 : 5.59
Cc1ccc2nc(N[C@H]3CC[C@H](Nc4ccc(-n5ccccc5=O)cn4)C3)sc2c1 : 5.20

Each molecule below has a recorded value; state its pIC50.
1. Fc1cccnc1-c1ccc(N[C@H]2CC[C@H](Nc3nc4cccnc4[nH]3)C2)nc1
2. O=c1ccccn1-c1ccc(N[C@H]2CC[C@H](Nc3nc4cc(Br)cnc4s3)C2)nc1

Out:
1: 5.50; 2: 5.37

Could you tell me pIC50 for each of these molecules? They are listed below.
1. COc1ccccc1-c1ccc(N[C@H]2CC[C@H](Nc3nc4cccnc4[nH]3)C2)nc1
2. O=c1ccccn1-c1ccc(N[C@H]2CC[C@H](Nc3nc4ccc(Br)cc4s3)C2)nc1
3. N#Cc1ccc(=O)n(-c2ccc(N[C@H]3CC[C@H](Nc4nc5cccnc5s4)C3)nc2)c1

Out:
1: 5.71; 2: 5.58; 3: 4.71

====

targetDesc: GSK3b (Glycogen synthase kinase-3 beta) (Homo sapiens)
testName: Assay 6 - GSK3b assay (ThermoFisher, FRET Z-Lyte)
Format: biochemical
conditionsUsed: geometric mean; ATP Conc: 10.000 μM; read-out: Assay 6 (GSK3B FRET-Z-Lyte CR) GMean IC50 (μM) ATP Conc: 10.000
recordedMetric: IC50

N#Cc1ccc(=O)n(-c2ccc(N[C@H]3CC[C@H](Nc4nc5cccnc5o4)C3)nc2)c1 : > 10 µM
Cn1cccc(-c2cnc(N[C@H]3CC[C@H](Nc4nc5cccnc5[nH]4)C3)cn2)c1=O : > 10 µM
Cc1ncc(-c2ccc(=O)n(-c3ccc(N[C@H]4CC[C@H](Nc5nc6cccnc6[nH]5)C4)nc3)c2)cn1 : 3.86 µM
N#Cc1ccc(=O)n(-c2ccc(N[C@H]3CC[C@H](Nc4nc5cccnc5[nH]4)C3)nc2)c1 : > 10 µM

Could I get IC50 for every one of these entries?
1. O=c1ccccn1-c1ccc(N[C@H]2CC[C@H](Nc3nc4ccc(CO)cc4o3)C2)nc1
2. Cn1ccc(=O)n(-c2ccc(N[C@H]3CC[C@H](Nc4nc5cccnc5s4)C3)nc2)c1=O
3. N#Cc1cccn(-c2ccc(N[C@H]3CC[C@H](Nc4nc5cccnc5s4)C3)nc2)c1=O
4. COc1ccnc2[nH]c(N[C@H]3CC[C@H](Nc4ccc(-n5ccccc5=O)cn4)C3)nc12

Out:
> 10 µM
> 10 µM
> 10 µM
2.49 µM

Dear reader, for each entry below, please note its IC50.
1. O=c1[nH]c2ccccc2n1-c1ccc(N[C@H]2CC[C@H](Nc3nc4cccnc4[nH]3)C2)nc1
2. Fc1ccccc1-c1ccc(N[C@H]2CC[C@H](Nc3nc4cccnc4[nH]3)C2)nc1

Out:
1: 7.61 µM; 2: > 10 µM

====

Provide the reported IC50 of each item.
targetDesc: GSK3b (Glycogen synthase kinase-3 beta) (Homo sapiens, UniProt P49841)
Sequence (P49841 whole entry): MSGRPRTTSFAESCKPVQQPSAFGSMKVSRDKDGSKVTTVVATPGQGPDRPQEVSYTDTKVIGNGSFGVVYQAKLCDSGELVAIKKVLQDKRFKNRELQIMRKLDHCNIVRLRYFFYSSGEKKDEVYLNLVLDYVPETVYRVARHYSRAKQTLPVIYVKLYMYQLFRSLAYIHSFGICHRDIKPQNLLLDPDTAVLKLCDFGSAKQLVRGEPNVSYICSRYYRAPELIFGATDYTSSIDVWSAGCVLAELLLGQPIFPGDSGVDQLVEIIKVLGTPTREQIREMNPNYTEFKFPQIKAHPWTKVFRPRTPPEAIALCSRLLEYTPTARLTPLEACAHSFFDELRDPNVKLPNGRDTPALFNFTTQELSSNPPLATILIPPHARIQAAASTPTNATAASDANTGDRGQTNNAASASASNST
testName: Assay 6 - GSK3b assay (ThermoFisher, FRET Z-Lyte)
Assay type: biochemical
conditionsUsed: geometric mean; ATP Conc: 10.000 μM; read-out: Assay 6 (GSK3B FRET-Z-Lyte CR) GMean IC50 (μM) ATP Conc: 10.000

Worked examples follow.
Cn1cccc(-c2cnc(N[C@H]3CC[C@H](Nc4nc5cccnc5[nH]4)C3)nc2)c1=O : > 10 µM
O=c1c(OC(F)F)cccn1-c1ccc(N[C@H]2CC[C@H](Nc3nc4cccnc4o3)C2)nc1 : > 10 µM
Cc1ccc2nc(N[C@H]3CC[C@H](Nc4ccc(-n5ccccc5=O)cn4)C3)oc2c1 : > 10 µM
Cc1cccn(-c2ccc(N[C@H]3CC[C@H](Nc4nc5cccnc5[nH]4)C3)nc2)c1=O : 8.15 µM
O=c1[nH]c2ccsc2c(=O)n1-c1ccc(N[C@H]2CC[C@H](Nc3nc4cccnc4s3)C2)nc1 : > 10 µM
Fc1cccc(F)c1-c1ccc(N[C@H]2CC[C@H](Nc3nc4cccnc4[nH]3)C2)nc1 : > 10 µM
N#Cc1ccc(=O)n(-c2ccc(N[C@H]3CC[C@H](Nc4nc5cccnc5s4)C3)nc2)c1 : > 10 µM
O=C1CN(c2ccc(N[C@H]3CC[C@H](Nc4nc5cccnc5[nH]4)C3)nc2)C(=O)N1 : 8.19 µM

Report IC50 for each item below.
1. CCc1cnc2[nH]c(N[C@H]3CC[C@H](Nc4ccc(-n5ccccc5=O)cn4)C3)nc2c1
2. Cc1cccn(-c2ccc(N[C@H]3CC[C@H](Nc4nc5cccnc5s4)C3)nc2)c1=O
3. N#Cc1ccc2nc(N[C@H]3CC[C@H](Nc4ccc(-n5ccccc5=O)cn4)C3)oc2c1
4. CN1C(=O)CN(c2ccc(N[C@H]3CC[C@H](Nc4nc5cccnc5[nH]4)C3)nc2)C1=O
5. CSc1cnc2[nH]c(N[C@H]3CC[C@H](Nc4ccc(-n5ccccc5=O)cn4)C3)nc2c1
6. Cc1cnc2[nH]c(N[C@H]3CC[C@H](Nc4ccc(-n5ccccc5=O)cn4)C3)nc2c1
7. O=c1ccccn1-c1ccc(N[C@H]2CC[C@H](Nc3nc4ccccc4o3)C2)nc1
8. O=c1cccnn1-c1cnc(N[C@H]2CC[C@H](Nc3nc4cccnc4[nH]3)C2)nc1

Out:
1. 3.13 µM
2. > 10 µM
3. 5.52 µM
4. > 10 µM
5. 0.794 µM
6. 5.59 µM
7. > 10 µM
8. > 10 µM

Would you mind giving IC50 for every compound in the list below?
1. O=c1c2sccc2ccn1-c1ccc(N[C@H]2CC[C@H](Nc3nc4cccnc4s3)C2)nc1
2. Cn1c(=O)n(-c2ccc(N[C@H]3CC[C@H](Nc4nc5cccnc5[nH]4)C3)nc2)c2ccccc21
3. O=c1ccccn1-c1ccc(N[C@H]2CC[C@H](Nc3nc4cc(OC(F)(F)F)cnc4[nH]3)C2)nc1
4. O=c1ccccn1-c1ccc(N[C@H]2CC[C@H](Nc3nc4cc(CO)cnc4s3)C2)nc1
5. O=c1ccncn1-c1ccc(N[C@H]2CC[C@H](Nc3nc4cccnc4[nH]3)C2)nc1
6. O=c1c(OC(F)(F)F)cccn1-c1ccc(N[C@H]2CC[C@H](Nc3nc4cccnc4[nH]3)C2)nc1
7. CN1CC(=O)N(c2ccc(N[C@H]3CC[C@H](Nc4nc5cccnc5[nH]4)C3)nc2)C1=O
8. COc1cnc2[nH]c(N[C@H]3CC[C@H](Nc4ccc(-n5ccccc5=O)cn4)C3)nc2c1

Out:
1. > 10 µM
2. > 10 µM
3. 1.52 µM
4. > 10 µM
5. > 10 µM
6. > 10 µM
7. > 10 µM
8. 5.45 µM

Please go through the list and note IC50 for each compound.
1. COc1ccc(=O)n(-c2ccc(N[C@H]3CC[C@H](Nc4nc5cccnc5s4)C3)nc2)c1
2. O=c1ccccn1-c1ccc(N[C@H]2CC[C@H](Nc3nc4ccc(Br)cc4o3)C2)nc1

Out:
1. 0.053 µM
2. > 10 µM

In: Consider the compound shown here: `O=c1ccccn1-c1ccc(N[C@H]2CC[C@H](Nc3nc4cc(Br)cnc4[nH]3)C2)nc1` What is its recorded IC50?
Out: 0.306 µM

Cited source: patent US20240239767A1
